target: D(2) dopamine receptor (Homo sapiens, UniProt P14416); assay: Agonist activity at human D2L receptor expressed in HEK293T cells coexpressing Gi subunit assessed as inhibition of isoproterenol-stimulated cAMP production by luminescence assay; type: functional, cell-based, HEK-293T; conditions: hek-293t
Sequence (P14416 whole entry): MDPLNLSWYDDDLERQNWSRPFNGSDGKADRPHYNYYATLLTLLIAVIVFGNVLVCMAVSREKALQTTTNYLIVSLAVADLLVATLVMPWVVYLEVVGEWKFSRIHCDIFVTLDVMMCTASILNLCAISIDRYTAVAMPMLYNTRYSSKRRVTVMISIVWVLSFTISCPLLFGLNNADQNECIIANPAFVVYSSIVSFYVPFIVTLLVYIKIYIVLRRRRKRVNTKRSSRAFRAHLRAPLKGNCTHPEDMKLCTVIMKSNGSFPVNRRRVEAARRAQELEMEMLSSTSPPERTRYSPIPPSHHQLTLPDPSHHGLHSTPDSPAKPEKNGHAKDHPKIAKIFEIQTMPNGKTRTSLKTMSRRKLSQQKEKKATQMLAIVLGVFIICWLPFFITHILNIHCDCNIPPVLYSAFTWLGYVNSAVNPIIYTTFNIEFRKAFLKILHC
Reported endpoint: EC50

Known results for compounds:
O=c1[nH]c2ccc(OCCCCN3CCN(c4cccc(Cl)c4Cl)CC3)cc2[nH]1; Not Active
Clc1cccc(N2CCN(CCCOc3ccc4scnc4c3)CC2)c1Cl; Not Active
Clc1cccc(N2CCCN(CCCCOc3ccc4scnc4c3)CC2)c1Cl; Not Active
O=C1CCc2ccc(Oc3ccc(CN4CCN(c5cccc(Cl)c5Cl)CC4)cc3)cc2N1; Not Active
Clc1cccc(N2CCN(CCCCOc3ccc4cn[nH]c4c3)CC2)c1Cl; Not Active
O=C1CCc2ccc(OCCCCN3CCCN(c4cccc(Cl)c4Cl)CC3)nc2N1; Not Active

Input "O=C1CCc2ccc(OCCCCN3CCN(c4cccc(Cl)c4Cl)CC3)nc2N1" . Output EC50: Not Active

###

target: D(2) dopamine receptor (Homo sapiens, UniProt P14416); assay: Partial agonist activity at D2L receptor in human HTLA cells assessed as beta arrestin recruitment at 6 uM after 18 hrs by luminescence assay; assay type: functional, cell-based
Reported endpoint: EC50 (µM)
Report as a plain number; the unit µM is understood.

Input "Clc1cccc(N2CCN(CCCCOc3ccc4cn[nH]c4c3)CC2)c1Cl" . Output EC50: 0.1

Input "O=C1CCc2ccc(Oc3ccc(CN4CCN(c5cccc(Cl)c5Cl)CC4)cc3)cc2N1" . Output EC50: 0.501

Input "Clc1cccc(N2CCN(CCCCOc3ccc4scnc4c3)CC2)c1Cl" . Output EC50: 0.063

Input "O=C1NCCc2ccc(OCCCCN3CCN(c4cccc(Cl)c4Cl)CC3)cc21" . Output EC50: 0.004

Input "O=C1CCc2ccc(OC[C@H]3CC[C@H](CN4CCN(c5cccc(Cl)c5Cl)CC4)CC3)cc2N1" . Output EC50: 1.58

Input "O=C1CCc2ccc(Oc3cccc(CN4CCN(c5cccc(Cl)c5Cl)CC4)c3)cc2N1" . Output EC50: 0.316

###

For each record, write down the corresponding EC50.
molecular target: D(2) dopamine receptor (Homo sapiens, UniProt P14416); assay: Agonist activity at D2L receptor in human HTLA cells assessed as beta arrestin recruitment at 6 uM after 18 hrs by luminescence assay; assay type: functional, cell-based
Report as a plain number; the unit nM is understood.

Input "O=C1NCCc2ccc(OCCCN3CCCN(c4cccc(Cl)c4Cl)CC3)cc21" . Output EC50: 6.3

Input "CCOc1cccc(N2CCN(CCCCOc3ccc4c(c3)NC(=O)CC4)CC2)c1" . Output EC50: 10

Input "Clc1cccc(N2CCN(CCCOc3ccc4cn[nH]c4c3)CC2)c1Cl" . Output EC50: 200

Input "Clc1cccc(N2CCN(CCCOc3ccc4scnc4c3)CC2)c1Cl" . Output EC50: 126

Input "O=C1NCCc2ccc(OCCCN3CCN(c4cccc(Cl)c4Cl)CC3)cc21" . Output EC50: 20

Input "Clc1cccc(C2CCN(CCCCOc3ccc4scnc4c3)CC2)c1Cl" . Output EC50: 79

Input "CCOc1ccc(N2CCN(CCCCOc3ccc4c(c3)NC(=O)CC4)CC2)cc1" . Output EC50: 50

Input "Clc1cccc(C2CCN(CCCOc3ccc4scnc4c3)CC2)c1Cl" . Output EC50: 50

Input "O=C1CCc2ccc(OCCCCN3CCCN(c4cccc(Cl)c4Cl)CC3)nc2N1" . Output EC50: 1.6

Input "CC(C)Oc1ccccc1N1CCN(CCCCOc2ccc3c(c2)NC(=O)CC3)CC1" . Output EC50: 2

###

target: D(2) dopamine receptor (Homo sapiens); assay: Agonist activity at human D2L receptor expressed in HEK293T cells coexpressing Gi subunit assessed as inhibition of isoproterenol-stimulated cAMP production by luminescence assay; format: functional, cell-based, HEK-293T; conditions: read-out: EC50
Reported endpoint: pEC50
Units for pEC50: none; it is -log10 of a concentration expressed in mol/L.

Input "CC(C)Oc1ccccc1N1CCN(CCCCOc2ccc3c(c2)NC(=O)CC3)CC1" . Output pEC50: 7.60

Input "CCOc1cccc(N2CCN(CCCCOc3ccc4c(c3)NC(=O)CC4)CC2)c1" . Output pEC50: 6.80

Input "CCOc1ccc(N2CCN(CCCCOc3ccc4c(c3)NC(=O)CC4)CC2)cc1" . Output pEC50: 6.60

###

For each record, write down the corresponding Emax.
molecular target: D(2) dopamine receptor (Homo sapiens, UniProt P14416); conditions: HTLA, at 6 µM
Description: Agonist activity at D2L receptor in human HTLA cells assessed as beta arrestin recruitment at 6 uM after 18 hrs by luminescence assay relative to Quinpirole
Report as a plain number; the unit % is understood.

Reported Emax (D(2) dopamine receptor (Homo sapiens, UniProt P14416)) for entry "Clc1cccc(C2CCN(CCCCOc3ccc4scnc4c3)CC2)c1Cl" is 78

Reported Emax (D(2) dopamine receptor (Homo sapiens, UniProt P14416)) for entry "CCOc1cccc(N2CCN(CCCCOc3ccc4c(c3)NC(=O)CC4)CC2)c1" is 40

Reported Emax (D(2) dopamine receptor (Homo sapiens, UniProt P14416)) for entry "CC(C)Oc1ccccc1N1CCN(CCCCOc2ccc3c(c2)NC(=O)CC3)CC1" is 63

Reported Emax (D(2) dopamine receptor (Homo sapiens, UniProt P14416)) for entry "CCOc1ccc(N2CCN(CCCCOc3ccc4c(c3)NC(=O)CC4)CC2)cc1" is 82

Reported Emax (D(2) dopamine receptor (Homo sapiens, UniProt P14416)) for entry "Clc1cccc(N2CCCN(CCCOc3ccc4scnc4c3)CC2)c1Cl" is 71

###

List of pKi tested on D(2) dopamine receptor (Homo sapiens).
Units for pKi: none; it is -log10 of a concentration expressed in mol/L.

Input "CC(C)Oc1ccccc1N1CCN(CCCCOc2ccc3c(c2)NC(=O)CC3)CC1" . Output pKi: 8.51

Input "O=C1CCc2ccc(OC[C@H]3CC[C@H](CN4CCN(c5cccc(Cl)c5Cl)CC4)CC3)cc2N1" . Output pKi: 6.84

Input "CCOc1cccc(N2CCN(CCCCOc3ccc4c(c3)NC(=O)CC4)CC2)c1" . Output pKi: 7.68

Input "CCOc1ccc(N2CCN(CCCCOc3ccc4c(c3)NC(=O)CC4)CC2)cc1" . Output pKi: 7.28
